- assay_system: human muscarinic M1 receptor (Homo sapiens, UniProt P11229)
- Sequence (P11229 whole entry): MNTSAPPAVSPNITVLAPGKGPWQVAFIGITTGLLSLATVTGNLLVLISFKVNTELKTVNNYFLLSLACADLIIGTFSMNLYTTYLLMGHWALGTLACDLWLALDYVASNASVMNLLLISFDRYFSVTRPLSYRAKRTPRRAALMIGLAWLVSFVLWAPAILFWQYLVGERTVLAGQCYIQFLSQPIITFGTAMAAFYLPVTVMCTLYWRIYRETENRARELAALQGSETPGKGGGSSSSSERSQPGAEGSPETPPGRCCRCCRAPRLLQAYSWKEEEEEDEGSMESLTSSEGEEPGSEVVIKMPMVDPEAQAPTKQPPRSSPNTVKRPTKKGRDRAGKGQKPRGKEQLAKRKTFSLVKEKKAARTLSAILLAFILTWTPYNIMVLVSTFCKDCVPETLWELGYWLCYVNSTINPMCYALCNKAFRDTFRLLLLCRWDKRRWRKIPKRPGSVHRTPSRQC
- measurement_protocol: Alphascreen Surefire phospho-ERK1/2 functional assay, M1
- Format: cell-based
- particulars: pEC50 M1, CHO cells stably expressing human M1; phospho-ERK1/2
pEC50: −log10 of the molar value.
Assign class by pEC50: not lower than 7 means T; lower than 7 means F.

Worked examples follow.
| compound | assay_system | classification |
| --- | --- | --- |
| CCOC(=O)N1C2COCC1CC(N1CCC(N(CC3(C)CC3)C(C)=O)CC1)C2 (single isomer, unassigned) [Example 6-3 Isomer 2] | human muscarinic M1 receptor (Homo sapiens, UniProt P11229) | F |
| CCOC(=O)N1C2COCC1CC(N1CCC(N(CC3(C)CCC3)C(C)=O)CC1)C2 (single isomer, unassigned) [Example 6-4 Isomer 1] | human muscarinic M1 receptor (Homo sapiens, UniProt P11229) | T |
| CCOC(=O)N1C2COCC1CC(N1CCC(c3cccnc3OC)CC1)C2 (single isomer, unassigned) [Example 2-2 Isomer 1] | human muscarinic M1 receptor (Homo sapiens, UniProt P11229) | F |
| CCOC(=O)N1C2COCC1CC(N1CCC(N(CC(C)C)C(C)=O)CC1)C2 (single isomer, unassigned) [Example 6-1 Isomer 1] | human muscarinic M1 receptor (Homo sapiens, UniProt P11229) | F |

Note: attention shifts to another entry.
In: Does pEC50 meet or surpass 7 for CCOC(=O)N1C2COCC1CC(N1CCC3(CC1)OC(=O)NC3CC)C2 (single isomer, unassigned) [Example 5-4 Isomer 1a] ?
Out: F
